Target: CETP (Homo sapiens)
Assay: Assay of CETP Inhibition in Human Plasma
Type: biochemical
Parameters: Blood was obtained from healthy volunteers, recruited from the personnel of Monsanto Company; from tissue; host or cells: human EDTA plasma pool from healthy volunteers
Settings: Inhibition of CETP activity in human plasma assay; transfer of [3H]CE from HDL to VLDL and LDL; read-out: IC50
pIC50: −log10 of the molar value.
value_type: pIC50

compound="OC(COC(F)(F)C(F)F)CN(Cc1cccc(OC(F)(F)F)c1)c1cccc(OC(F)(F)F)c1 (centres unmarked)" data_value="< 4.00"
compound="COc1ccc(Oc2ccc(CN(CC(O)C(F)(F)F)c3cccc(Oc4ccccc4)c3)cc2)cc1 (centres unmarked)" data_value="< 4.00"
compound="CC(=O)OC(CN(Cc1cccc(C(F)(F)F)c1)c1cccc(F)c1)C(F)(F)F (centres unmarked)" data_value="< 3.70"
compound="COc1ccc(CN(CC(O)C(F)(F)F)c2cccc(Oc3ccccc3)c2)cc1 (centres unmarked)" data_value="< 4.00"
compound="OC(CN(Cc1cccc(OC(F)(F)C(F)F)c1)c1cccc(OCc2ccc(OC(F)F)cc2)c1)C(F)(F)F (centres unmarked)" data_value="< 4.30"

----------
Biological target: CETP (Homo sapiens, UniProt P11597)
Sequence (P11597 18-493): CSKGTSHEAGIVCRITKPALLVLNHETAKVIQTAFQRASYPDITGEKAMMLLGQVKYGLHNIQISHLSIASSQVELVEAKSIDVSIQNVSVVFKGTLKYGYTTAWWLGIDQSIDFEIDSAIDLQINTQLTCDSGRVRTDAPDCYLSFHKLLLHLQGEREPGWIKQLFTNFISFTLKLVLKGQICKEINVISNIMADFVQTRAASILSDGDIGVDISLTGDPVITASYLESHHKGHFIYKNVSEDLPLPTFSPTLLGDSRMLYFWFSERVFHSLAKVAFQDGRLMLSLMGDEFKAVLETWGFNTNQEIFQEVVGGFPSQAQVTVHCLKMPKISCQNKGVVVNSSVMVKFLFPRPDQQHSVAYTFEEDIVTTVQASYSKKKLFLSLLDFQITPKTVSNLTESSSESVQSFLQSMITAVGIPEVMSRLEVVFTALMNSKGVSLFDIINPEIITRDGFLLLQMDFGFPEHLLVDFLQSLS
Experiment: Assay of CETP Inhibition using Purified Components (Reconstituted Buffer Assay)
Format: biochemical
Parameters: made in house; host or cells: CHO cells (serum-free conditioned medium)
Details: Inhibition of CETP activity in reconstituted buffer assay; transfer of [3H]CE from HDL to LDL; read-out: IC50
value_type: IC50 (µM)

compound="O=[N+]([O-])c1cccc(S(=O)(=O)Nc2cccc(N(Cc3cccc(OC(F)(F)C(F)F)c3)CC(O)C(F)(F)F)c2)c1 (stereo not shown) [Example 532]" operator=> data_value=50
compound="CN1CCN(C(=O)c2cccc(N(Cc3cccc(OC(F)(F)C(F)F)c3)CC(O)C(F)(F)F)c2)CC1 (stereo not shown) [Example 470]" operator=> data_value=50
compound="O=C(Nc1cccc(N(Cc2cccc(OC(F)(F)C(F)F)c2)CC(O)C(F)(F)F)c1)c1ccc(F)cc1 (stereo not shown) [Example 535]" operator=> data_value=50
compound="OC(CN(Cc1ccc(C(F)(F)F)cc1)Cc1cccc(Cl)c1)C(F)(F)F (stereo not shown) [compound 172]" operator== data_value=7
compound="CCCc1ccc(Nc2cccc(N(Cc3cccc(OC(F)(F)C(F)F)c3)CC(O)C(F)(F)F)c2)cc1 (stereo not shown) [Example 299]" operator== data_value=2.3
compound="OC(CN(Cc1cccc(OC(F)(F)F)c1)c1ccc(Cc2ccccc2)cc1)C(F)(F)F (stereo not shown) [Example 136]" operator== data_value=12
compound="OC(CN(Cc1cccc(OC(F)(F)C(F)F)c1)c1cccc(Oc2cncnc2)c1)C(F)(F)F (stereo not shown) [Example 449]" operator== data_value=3.9

----------
Target: CETP (Homo sapiens, UniProt P11597)
Test: Assay of CETP Inhibition using Purified Components (Reconstituted Buffer Assay)
Type: biochemical
Set-up: made in house; host or cells: CHO cells (serum-free conditioned medium)
Conditions: Inhibition of CETP activity in reconstituted buffer assay; transfer of [3H]CE from HDL to LDL; read-out: IC50
value_type: IC50 (nM)

compound="CSc1ccc(Oc2cccc(N(Cc3cccc(OC(F)(F)C(F)F)c3)CC(O)C(F)(F)F)c2)cc1C (centres unmarked) [Example 271]" value_type=IC50 operator== data_value=500
compound="OC(CN(Cc1cccc(C(F)(F)F)c1)c1cccc(F)c1)C(F)(F)F (centres unmarked) [Example 1]" value_type=IC50 operator== data_value=38000
compound="OC(CN(Cc1cccc(OC(F)(F)C(F)F)c1)c1cccc(Oc2ccc(C(F)(F)F)cc2F)c1)C(F)(F)F (centres unmarked) [Example 224]" value_type=IC50 operator== data_value=160
compound="COc1c(F)c(F)c(COc2cccc(N(Cc3cccc(OC(F)(F)C(F)F)c3)CC(O)C(F)(F)F)c2)c(F)c1F (centres unmarked) [Example 386]" value_type=IC50 operator== data_value=3200
compound="Cc1ccc(N(Cc2cccc(C)c2)CC(O)C(F)(F)F)cc1 (centres unmarked) [Example 5]" value_type=IC50 operator=> data_value=100000
compound="OC(CN(Cc1cccc(OC(F)(F)C(F)F)c1)c1cccc(OCc2cccc(C(F)(F)F)c2)c1)C(F)(F)F (centres unmarked) [Example 379]" value_type=IC50 operator== data_value=98
compound="COc1cccc(N(Cc2cccc(C(F)(F)F)c2)CC(O)C(F)(F)F)c1 (centres unmarked) [Example 48]" value_type=IC50 operator=> data_value=100000
compound="CCC(C)(C)c1ccc(Oc2cccc(N(Cc3cccc(OC(F)(F)C(F)F)c3)CC(O)C(F)(F)F)c2)cc1 (centres unmarked) [Example 255]" value_type=IC50 operator== data_value=1600
